test: soluble on expression in E. coli; label from the status in PepcDB or PDB records
assay.metric: soluble on expression in E. coli

residue.string: MEKVGEDEEKTIEEANNSTEETKSDKEEERIKGTIADQVDPVDSTEEGSTGPSNSHTVVSKDHDFSESDMEDEEQVLEFFRRNHGFSPEVTKRNNFPYVNNSERMVLQFQEDTSAETEQTNEMFHSLNDSNEILEGTKSSSASDEDTEDSSSNSDLDSSLSRYYFDGSLPVSAHVEEFETHQDESLVPKDENQVCNPNWWGMI
result: not soluble
--
residue.string: MAFFRLAALLWLGMLMSPVQAQSLSLQVLDAVVKDAVLADAEVQLGQASGRTDAQGRVTLEAADSPGSELLIRKLGYADLRAKCPCQGLSYAMSPVLKDPQSLRVVLSWSAPGEDLDAHLSYPHRLLYYATGTGPGARMNVDSTDSRGPETLTIEQPVPGDAYVYAVHDFTNGNNPESLRLGRSQAQVFVYKGPTLMRSYRVPQNRQGNLWVVFRLTANGQLQDIDRVLQGNEEVESRMSDLDPLLLANGKPIDEVLARDEGPVDAKSLNQKGEASYRKGDVGSAGIYYREAIELDPGFAQAYSNLALSNRKNSRPDEAVAADRQAIALASGPSAPTIRASAYYDMGRIYEDAGQLVTALEHYRKAREQKANPVYDKAIERLQNRLEHHHHHH
result: not soluble
--
residue.string: MGSDKIHHHHHHMLLYIHGFNSSPFSDKAVITAKYMAQHHPSVIFHQPQLPNTPKAAMALLTTYVEAAIDAKEPLAYIGSSLGGYFASYLAETYGGKAVLVNPAVKPFELFDEFMGPQFNPYTEQHYLVVPEHKREVAEFNTAVIRNPDRFLVLLQTGDEVLDYREAVNKYHHCQLRIEAGGDHSFVGYESHLQTVSQFLHLP
result: not soluble

* * *

assay: soluble on expression in E. coli; label from the status in PepcDB or PDB records

residue.string: ENSHNKARTSPYPGSKVERSQVPNEKVGWLVEWQDYKPVEYTAVSVLAGPRWADPQISESNFSPKFNEKDGHVERKSKNGLYEIENGRPRNPAGRTGLVGRGLLGRWGPNHAADPIITRWKRDSSGNKIMHPVSGKHILQFVAIKRKDCGEWAIPGGMVDPGEKISATLKREFGEEALNSLQKTSAEKREIEEKLHKLFSQDHLVIYKGYVDDPRNTDNAWMETEAVNYHDETGEIMDNLMLEAGDDAGKVKWVDINDKLKLYASHSQFIKLVAEKRDAHWSEDSEADCHAL
soluble on expression in E. coli: soluble

residue.string: MATSKLQAIWNHPAGPKTIHFWAPTFKWGISIANIADFAKPPEKLSYPQQIAVTCTGVIWSRYSMVINPKNWNLFSVNVAMAGTGIYQLARKIKHDYATEAEPAVASE
soluble on expression in E. coli: soluble

residue.string: MIRVIEKGDKVSLPFSRGILTRSITSVGIDVDLAYSIAIEVQEELVKKGKTIVTKDEIRKLTYQKLIEKGFKEEAKRYIFWRRFRKMKVPLIILLGGPTGVGKSTIATELAFRLGIRSVIGTDSIREVLRKIITPELLPTIHTSTFLAWKELKGTVTDSPIVAGFESQVSAVTVGINAIIERAVREGLNAIIEGIHVVPGFVKVEGEMTFMYMLIARSREDLEARFYERTRYSKRPADYYISHLDEILEIQDYLIRRAKKFNVPVIENVELEETVSKIMEDIMQKTIEIMKGKGLDLLEEP
soluble on expression in E. coli: soluble

* * *

assay: soluble on expression in E. coli; label from the status in PepcDB or PDB records

residue.string: MGSDKIHHHHHHMKTLKGPAIFLAQFIGDTPPFDKLETMAAWVSSLGYAGVQMPTGGADSFFDLALAAESQTYCDDIAGLLAEYGLEITELSTHLQGQLVAVHPAYDELFDGFAPPELRGKPKERQAWAVEQVKAAAVASRRLGLKAHATFSGSLAWPYLYPWPQRPAGLIEEAFAELGRRWKPILDVFDENGVDAAYEIHPGEDLHDGATFERFLDEVGGHPRANILYDPSHFVLQQLDYLAYIDRYHERIKAFHVKDAEFRPSARSGVYGGYQGWVDRPGRFRSLGDGQVDFKAIFSKLAQYDYDGWAVLEWECALKHPEQGAAEGAPFIRDHIIRVTDKAFDDFASAGSEAGRNRRLLGL
soluble on expression in E. coli: not soluble
//
residue.string: MKTYNIPVEATLEVIGGKWKVVILCHLKKDKKRTCELKQLMSGITQKMLTQQLRELEEDGVIERKVYNQVPPKVEYSLTDYGHSLDSILDTLCNWGENHLEKNGNTSMLITAAE
soluble on expression in E. coli: not soluble

* * *

experiment: soluble on expression in E. coli; label from the status in PepcDB or PDB records
assay.metric: soluble on expression in E. coli

residue.string: MVKGDITTAFIAEEYPDGFQGAVLDEPTLRRVAAAAAAMNRVAEIRRTRISGTMNNHERHVGVDWVVALQGESYHVSIAADREGSTVSFSDGSSLRVTSDWTPGQPLEHHHHHH
result: not soluble
--
residue.string: MAHHHHHHMWTAPPSLRTVRPIFLPLNVVANSTSSLLLHPGQLDLKHVEGYMTSKKWLSKLKCCGDNPLTVDEMKALVLMFLKKISDTYVDDQAKWMNKMRSSQEEQGKALEEAMNEYEKNILFNHALKEQQLLHNNKKISEWNETIENAYEAQQEVLRQFEAKKREDKKKMALEKNNELIIAKDYIDKIKEAATDSRYANSKCFVYPASSAPCGACTSAGAIAPYRRFKEPRRKKQYSLCL
result: not soluble
--
residue.string: MSLEDGPVTNPRQEEPQKVVKEEGFARGADVSWLTQMEAEGLKFYTPDENRQEMECMDLLRDYCGVNSIRLRVWVNPKDGWNNMNDVIVKAKRAERLGLRTMIDFHFSDTWADPGHQEMPEAWKELSFDDLKIALSEHVKSVLTALKAVGVTPEWVQVGNETTPGMMLPVGSVDNPEQLTALNNAGYDAVKAICPDAKVIVHLDAGNDQWVYNRMFDILQANGGKYDMIGMSLYPYWAEQEGKTGGWLKVADDCIANIKHVKQKYNKPVMICEIGMPYDQAEACKQLITKMMQADVEGIFYWEPQAPNGYNDGYNLGCFDNNAPTIALDAFKIEGHHHHHH
result: soluble
--
residue.string: GPGSMTSLNTELALAKRFHMLSKNYSNRPVIARRNTLPTLVRFIRSNDRETRHYSLSALLLLAQHEENVELLCLERGLVPGVYAVYKDADYDDPQLREIADQILNCLEPVLQGRDPRKASQTSVTPVGSSSDAVDSDPLNDSFSPSRRARAGRVLRGVGSDAIHTVLLDIPALDPNGGDNIEAIEDIFQTTRGVLSYSIFVENRQARLFVTCATQVVQQVLSDSGFESVVVRDDVVNQEMFGGGADGSAGLNSGGNRSNTSYYDGGSPQHRPSYLQSVANSIYQSALVLGGGSRNNDTLSARVNEQRTREQEGESTFGYISKTLSKWW
result: not soluble
--
residue.string: MWTVTKIRADYEGWWLFSDWPENIVEKYQYQDFDDMFKHYQQLINQCKVQFDNYVTGKYNIYAFYNNCDMNYCEDCEEDLQIFYSFIVLQNNEVYYKLPIIDLEHHHHHH
result: soluble
--
residue.string: MAHHHHHHMGNKISTEDHIFRLKLKTKELEKLSQRSELEEKKLIGDVKKAIQAGKIELARLYAEKCIRKKNEKVNYLNLSNKLDVLVSRLEGAHRCASLVKDVGVMIPLIQKINAETNAIKIGNDVTKLENIFDEISISSELINDTVQTSSAISAPTEEVDELISKIADEHALKLDGQIGSVHPINKHLEEISNMSERIKNLK
result: soluble
--
residue.string: MKEVIFTENAPKPIGPYSQAIKAGNFLFIAGQIPIDPKTGEIVKGDIKDQTRQVLENIKAILEAAGYSLNDVIKVTVYLKDMNDFAKMNEVYAEYFGESKPARVAVEVSRLPKDVLIEIEAIAYKE
result: soluble
--
residue.string: MSLHEYELNQDLLAENKRLAEKNREALRESGTVAVNIMGAIGSGKTLLIERTIERIGNEVKIGAMLGDVVSKADYERVRRFGIKAEAISTGKECHLDAHMIYHRLKKFSDCDLLLIENVGNLICPVDFDLGENYRVVMVSVTEGDDVVEKHPEIFRVADLIVINKVALAEAVGADVEKMKADAKLINPRAKIIEMDLKTGKGFEEWIDFLRGILNVHSDSGQNEGGSHHHHHH
result: soluble
--
residue.string: MAVAPTAREENVYMAKLAEQAERYEEMVEFMEKVSNSLGSEELTVEERNLLSVAYKNVIGARRASWRIISSIEQKEESRGNEEHVNSIREYRSKIENELSKICDGILKLLDAKLIPSAASGDSKVFYLKMKGDYHRYLAEFKTGAERKEAAESTLTAYKAAQDIATTELAPTHPIRLGLALNFSVFYYEILNSPDRACNLAKQAFDEAIAELDTLGEESYKDSTLIMQLLRDNLTLWTSDMQDDGADEIKEDPKPDEAKN
result: soluble
--
residue.string: MSLKNKLQVKIPGKLYVAGEYAVVESGHTAILTAVNRYITLTLEDSERNELWIPHYENPVSWPIGGELKPDGEHWTFTAEAINIATTFLKSEGIELTPVKMVIETELIDQSGAKYGLGSSAAATVAVINALMTKFYPEISMLKKFKLAALSHLVVQGNGSCGDIASCMYGGWIAYTTFDQEWVKHRLAYKSLEWFMKEPWPMLQIETLEEPVPTFSVGWTGTPVSTGKLVSQIHAFKQEDSKNYQHFLTRNNEIMKQIIQAFHTKDEELLYSSIKENRRILQELGTKAGVNIETSLLKELADSAENMGGAGKSSGSGGGDCGIAFSKTKELAEKLVNEWEKLGIKHLPFHTGRVQITEGHHHHHH
result: soluble
--
residue.string: MGHHHHHHSHMAASFAFLRDVRPYKTSWRVQVKVLHSWCQYTNMTGETLKLVLVNSQGVKIHASVKKDLVSKYVNNLPLNEWTFIETFALNHASGQFRPTGHLYKMSFVTGTQVIRCDS
result: soluble
--
residue.string: MGHHHHHHSHNLGPRLTPLLQEEDSHQRLLMGLMVSELKDHFLRHLQGVEKKKIEQMVLDYISKLLDLICHIVETNWRKHNLHSWVLHFNSRGSAAEFAVFHIMTRILEATNSLFLPLPPGFHTLHTILGVQCLPLHNLLHCIDSGVLLLTETAVIRLMKDLDNTEKNEKLKFSIIVRLPPLIGQKICRLWDHPMSSNIISRNHVTRLLQNYKKQPRNSMINKSSFSVEFLPLNYFIEILTDIESSNQALYPFEGHDNVDAEFVEEAALKHTAMLLGL
result: not soluble
--
residue.string: QSAYSRIEAESYSNQSGIQTETCSEGGEDVGFVENGDYTVYNNVDFGDGVGGFQARVASATSGGNIEIRLDSSTGTLIGTCPVAGTGDWQTYTDAKCTVSGVTGKHDVYLVFKGDSGYLFNLNWFTFSE
result: soluble

Hello, the source for this data is the DeepSol protein solubility set, in case you need it.
